Tested on: Candida albicans
Test: Antifungal activity against fluconazole-resistant Candida albicans DSY735 expressing high level of CDR1 and CDR2 genes after 24 hrs by visually and spectrophotometric analysis
Assay type: functional
Settings: DSY735, 24 h
# MIC90 per entry
reported property: MIC90

C[C@@H](c1ncncc1F)[C@](O)(Cn1cncn1)c1ccc(F)cc1F [VORICONAZOLE]
2 µg/mL
C=CCNC(=N)NCCCCCCCCN1CCCCCCCCNC(=N)NC1=O.O=C(O)C(F)(F)F
1 µg/mL
C/C=C/CNC(=N)NCCCCCCCCN1CCCCCOC(=O)CCNC(=N)NC1=O.O=C(O)C(F)(F)F
16 µg/mL
C/C=C/CNC(=N)NCCCCCCCCN1CCCCCOc2ccccc2CNC(=N)NC1=O.O=C(O)C(F)(F)F
2 µg/mL
N=C(NCCCCCCCCN1CCCCCCCCNC(=N)NC1=O)NCC1CC1.O=C(O)C(F)(F)F
1 µg/mL
C/C=C/CNC(=N)NCCCCCCCCN1CCCCOC(=O)CCNC(=N)NC1=O.O=C(O)C(F)(F)F
8 µg/mL
C/C=C/CNC(=N)NCCCCCCCCN1CCCCCCOc2ccccc2CNC(=N)NC1=O.O=C(O)C(F)(F)F
5 µg/mL
C/C=C/CNC(=N)NCCCCCCCCN1CCCCOc2ccccc2CNC(=N)NC1=O.O=C(O)C(F)(F)F
8 µg/mL
OC(Cn1cncn1)(Cn1cncn1)c1ccc(F)cc1F [FLUCONAZOLE]
64 µg/mL
